Record form. Attribute: activation at 10 µM. Fill in for each entry.
Target Desc: HEK-293-αVβ3 cells (Homo sapiens, UniProt P05106+P06756)
Sequence (P05106 whole entry): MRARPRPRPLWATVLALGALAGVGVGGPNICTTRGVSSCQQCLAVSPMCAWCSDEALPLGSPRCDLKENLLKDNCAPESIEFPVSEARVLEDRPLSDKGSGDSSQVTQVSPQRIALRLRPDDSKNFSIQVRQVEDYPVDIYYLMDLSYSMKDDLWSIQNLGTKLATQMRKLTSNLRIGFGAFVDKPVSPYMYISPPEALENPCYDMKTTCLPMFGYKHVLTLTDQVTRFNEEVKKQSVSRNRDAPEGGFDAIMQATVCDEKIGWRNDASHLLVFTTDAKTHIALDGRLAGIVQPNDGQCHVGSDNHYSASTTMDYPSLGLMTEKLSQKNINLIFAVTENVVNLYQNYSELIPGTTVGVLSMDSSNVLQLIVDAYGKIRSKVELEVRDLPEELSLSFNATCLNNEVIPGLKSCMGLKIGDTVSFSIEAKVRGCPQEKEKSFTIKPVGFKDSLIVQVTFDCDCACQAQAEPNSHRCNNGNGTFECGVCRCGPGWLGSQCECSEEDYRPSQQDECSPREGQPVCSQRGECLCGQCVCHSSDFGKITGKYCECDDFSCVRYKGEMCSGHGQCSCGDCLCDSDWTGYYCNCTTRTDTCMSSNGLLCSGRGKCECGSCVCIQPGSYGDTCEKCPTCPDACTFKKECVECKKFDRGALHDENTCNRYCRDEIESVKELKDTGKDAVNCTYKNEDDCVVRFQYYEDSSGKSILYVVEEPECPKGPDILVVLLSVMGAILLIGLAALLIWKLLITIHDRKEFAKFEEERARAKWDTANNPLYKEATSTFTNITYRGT
Sequence (P06756 whole entry): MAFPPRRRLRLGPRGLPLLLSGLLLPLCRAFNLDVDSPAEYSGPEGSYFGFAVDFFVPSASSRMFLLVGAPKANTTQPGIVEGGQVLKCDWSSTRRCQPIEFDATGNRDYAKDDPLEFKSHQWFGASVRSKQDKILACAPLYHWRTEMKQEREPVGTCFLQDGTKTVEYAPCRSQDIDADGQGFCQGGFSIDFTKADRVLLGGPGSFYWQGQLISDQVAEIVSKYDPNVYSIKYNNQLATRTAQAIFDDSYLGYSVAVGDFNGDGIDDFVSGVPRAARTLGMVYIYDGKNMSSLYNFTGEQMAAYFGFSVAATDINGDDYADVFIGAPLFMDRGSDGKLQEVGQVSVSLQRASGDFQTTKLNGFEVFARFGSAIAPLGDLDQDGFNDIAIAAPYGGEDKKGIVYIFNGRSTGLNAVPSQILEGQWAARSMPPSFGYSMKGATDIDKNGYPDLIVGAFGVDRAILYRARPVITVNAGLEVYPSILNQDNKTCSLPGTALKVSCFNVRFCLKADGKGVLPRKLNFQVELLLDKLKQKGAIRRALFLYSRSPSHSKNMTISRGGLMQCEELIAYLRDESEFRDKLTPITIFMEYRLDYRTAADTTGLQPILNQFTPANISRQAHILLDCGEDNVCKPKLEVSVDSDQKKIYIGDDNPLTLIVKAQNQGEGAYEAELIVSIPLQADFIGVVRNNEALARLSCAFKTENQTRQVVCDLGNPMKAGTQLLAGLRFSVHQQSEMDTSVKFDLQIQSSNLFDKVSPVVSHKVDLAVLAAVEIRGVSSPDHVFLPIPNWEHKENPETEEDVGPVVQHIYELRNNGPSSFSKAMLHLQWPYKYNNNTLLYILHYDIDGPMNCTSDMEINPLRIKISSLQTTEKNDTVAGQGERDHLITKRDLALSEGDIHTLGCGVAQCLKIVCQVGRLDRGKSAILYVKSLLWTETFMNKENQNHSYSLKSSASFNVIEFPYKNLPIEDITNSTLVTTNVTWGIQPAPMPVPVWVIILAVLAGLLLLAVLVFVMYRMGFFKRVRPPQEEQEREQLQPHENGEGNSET
Measurement Protocol: AP5 Binding Assay
Type: cell-based
Cond: @10 μM; relative to AP5 expression induced by cilengitide; read-out: AP5 expression induced at the highest concentration
Answers are plain numbers, in %.

Please review the following examples before continuing.
Molecule	activation at 10 µM / %
O=C(CCCCc1ccc2c(n1)NCCC2)NCCC(NS(=O)(=O)c1cccnc1)C(=O)O (centres unmarked)	22
O=C(CCCCc1ccc2c(n1)NCCC2)NCCC(NC(=O)OCc1ccccc1)C(=O)O (centres unmarked)	15
O=C(CCCCc1ccc2c(n1)NCCC2)NCCC(NC(=O)c1nc2ccccc2o1)C(=O)O (centres unmarked)	4
Cc1ccc(S(=O)(=O)NC(CCNC(=O)CCCCc2ccc3c(n2)NCCC3)C(=O)O)cc1 (centres unmarked)	7
O=C(CCCCc1ccc2c(n1)NCCC2)NCCC(NC(=O)c1nc2ccccc2s1)C(=O)O (centres unmarked)	9

I have 3 molecules here; please give me activation at 10 µM for each one.
1. COc1cccc(C(=O)NC(CCNC(=O)CCCCc2ccc3c(n2)NCCC3)C(=O)O)n1 (centres unmarked)
2. O=C(CCCCc1ccc2c(n1)NCCC2)NCC[C@H](NC(=O)OCc1ccccc1)C(=O)O
3. CC(C)Cc1cn(C(CCNC(=O)CCCCc2ccc3c(n2)NCCC3)C(=O)O)nn1 (centres unmarked)

Solution:
1. 9
2. 16
3. 8
